Target: UniProt P00533
Sequence (P00533 25-1210, species assumed): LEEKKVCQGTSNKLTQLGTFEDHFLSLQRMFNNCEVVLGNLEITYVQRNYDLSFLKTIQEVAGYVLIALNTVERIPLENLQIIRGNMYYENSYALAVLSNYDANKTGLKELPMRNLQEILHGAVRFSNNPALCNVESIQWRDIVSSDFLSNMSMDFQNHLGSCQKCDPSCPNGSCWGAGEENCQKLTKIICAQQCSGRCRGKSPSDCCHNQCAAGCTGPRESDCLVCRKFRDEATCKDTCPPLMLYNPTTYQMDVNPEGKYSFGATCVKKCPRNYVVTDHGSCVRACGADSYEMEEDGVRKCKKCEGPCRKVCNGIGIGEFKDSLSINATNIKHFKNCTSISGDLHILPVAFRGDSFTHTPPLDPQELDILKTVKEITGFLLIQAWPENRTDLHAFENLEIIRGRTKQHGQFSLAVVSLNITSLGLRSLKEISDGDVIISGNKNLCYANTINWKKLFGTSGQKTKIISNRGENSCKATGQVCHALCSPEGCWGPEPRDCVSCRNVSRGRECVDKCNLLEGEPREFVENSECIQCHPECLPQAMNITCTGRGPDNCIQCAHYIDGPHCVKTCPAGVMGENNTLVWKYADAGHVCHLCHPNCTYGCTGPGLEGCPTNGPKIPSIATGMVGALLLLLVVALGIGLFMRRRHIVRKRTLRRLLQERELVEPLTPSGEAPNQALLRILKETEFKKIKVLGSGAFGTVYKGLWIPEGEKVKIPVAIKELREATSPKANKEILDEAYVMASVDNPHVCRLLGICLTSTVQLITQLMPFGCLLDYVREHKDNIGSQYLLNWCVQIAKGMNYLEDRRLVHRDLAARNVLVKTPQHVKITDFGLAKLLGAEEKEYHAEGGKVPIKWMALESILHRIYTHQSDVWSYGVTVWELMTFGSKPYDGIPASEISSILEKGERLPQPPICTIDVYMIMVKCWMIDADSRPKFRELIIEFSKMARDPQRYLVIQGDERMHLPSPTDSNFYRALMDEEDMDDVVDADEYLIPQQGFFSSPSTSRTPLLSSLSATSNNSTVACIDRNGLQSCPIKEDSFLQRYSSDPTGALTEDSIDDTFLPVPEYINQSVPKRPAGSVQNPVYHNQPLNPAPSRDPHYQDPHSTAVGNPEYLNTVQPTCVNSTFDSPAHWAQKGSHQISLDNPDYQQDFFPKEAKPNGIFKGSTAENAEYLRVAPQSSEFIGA
REPORTED ENDPOINT: pIC50
One number for each entry, as −log10 of the molar value.

Input: Please supply the value of reported pIC50 for the item C#CCN(Cc1cnc2nc(N)nc(N)c2n1)c1ccc(C(=O)NC(CCC(=O)O)C(=O)O)cc1C (centres unmarked)
Output: 5.30

----------
Target: propionyl-CoA carboxylase subunit beta (PCCB) (Sus scrofa, UniProt P79384)
Construct: a porcine liver proteome was run over an ATP-Sepharose™ column
Assay: Elution of PCCB from ATP-Sepharose column loaded with porcine liver proteome, IC50 estimate
Details: estimated from percent of protein eluted from ATP-Sepharose column, read-out: Approximate IC50 for PCCB
So I've got a bunch of molecules here, and I need their IC50 values.
Answers are plain numbers, in µM.

Hi, could you look up IC50 for each item in my list?
1. C#CCN(Cc1cnc2nc(N)nc(N)c2n1)c1ccc(C(=O)NC(CCC(=O)O)C(=O)O)cc1OC(F)(F)F (centres unmarked)
2. C#CCN(Cc1cnc2nc(N)nc(N)c2n1)c1ccc(C(=O)NC(CCC(=O)O)C(=O)O)cc1OC (centres unmarked)
3. Cc1cc(C(=O)NC(CCC(=O)O)C(=O)O)ccc1N(Cc1cnc2nc(N)nc(N)c2n1)CC1CC1 (centres unmarked)
4. CC(C)(C)CN(Cc1cnc2nc(N)nc(N)c2n1)c1ccc(C(=O)NC(CCC(=O)O)C(=O)O)cc1 (centres unmarked)
5. CC(C)=CCN(Cc1cnc2nc(N)nc(N)c2n1)c1ccc(C(=O)NC(CCC(=O)O)C(=O)O)cc1C (centres unmarked)

Output:
1: 14; 2: 3.5; 3: 3.5; 4: 4; 5: 1

----------
Target: propionyl-CoA carboxylase subunit alpha (PCCA) (Sus scrofa)
Construct: a porcine liver proteome was run over an ATP-Sepharose™ column
Sequence (P0DTA4 53-730): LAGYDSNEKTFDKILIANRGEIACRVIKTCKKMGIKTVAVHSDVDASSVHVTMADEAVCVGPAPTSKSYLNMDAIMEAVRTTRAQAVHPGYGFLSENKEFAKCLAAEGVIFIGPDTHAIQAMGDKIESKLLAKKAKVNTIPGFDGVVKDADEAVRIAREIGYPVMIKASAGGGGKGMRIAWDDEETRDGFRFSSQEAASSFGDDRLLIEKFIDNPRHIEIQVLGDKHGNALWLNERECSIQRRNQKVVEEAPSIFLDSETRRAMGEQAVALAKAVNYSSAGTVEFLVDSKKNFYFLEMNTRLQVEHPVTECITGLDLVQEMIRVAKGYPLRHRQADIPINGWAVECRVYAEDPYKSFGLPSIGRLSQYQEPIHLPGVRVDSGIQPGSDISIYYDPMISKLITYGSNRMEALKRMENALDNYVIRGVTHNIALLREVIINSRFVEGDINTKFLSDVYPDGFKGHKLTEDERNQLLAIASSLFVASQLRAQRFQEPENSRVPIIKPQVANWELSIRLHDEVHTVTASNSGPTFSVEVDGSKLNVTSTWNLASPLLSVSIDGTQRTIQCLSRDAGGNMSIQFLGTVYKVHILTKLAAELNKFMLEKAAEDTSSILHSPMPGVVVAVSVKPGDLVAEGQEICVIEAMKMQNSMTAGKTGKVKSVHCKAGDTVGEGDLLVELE
Sequence (P79384 29-539 partner): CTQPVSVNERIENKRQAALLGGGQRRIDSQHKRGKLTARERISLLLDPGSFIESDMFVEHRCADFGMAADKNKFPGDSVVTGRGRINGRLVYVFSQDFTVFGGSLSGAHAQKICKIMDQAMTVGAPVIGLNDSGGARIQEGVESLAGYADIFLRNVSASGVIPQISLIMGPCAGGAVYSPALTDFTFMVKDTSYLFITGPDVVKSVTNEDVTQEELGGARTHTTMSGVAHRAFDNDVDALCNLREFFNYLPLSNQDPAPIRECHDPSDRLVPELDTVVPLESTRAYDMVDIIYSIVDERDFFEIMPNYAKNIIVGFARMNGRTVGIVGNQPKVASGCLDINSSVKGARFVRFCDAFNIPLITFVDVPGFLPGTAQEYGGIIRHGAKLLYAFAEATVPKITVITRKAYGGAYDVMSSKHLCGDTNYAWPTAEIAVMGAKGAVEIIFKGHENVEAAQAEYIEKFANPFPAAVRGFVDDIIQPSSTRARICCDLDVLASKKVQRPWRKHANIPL
Assay: Elution of PCCA from ATP-Sepharose column loaded with porcine liver proteome, IC50 estimate
Conditions: estimated from percent of protein eluted from ATP-Sepharose column, read-out: Approximate IC50 for PCCA
So I've got a bunch of compounds here, and I need their IC50 values.
Give bare numbers, in µM.

Worked examples follow.
C#CCN(Cc1cnc2nc(N)nc(N)c2n1)c1ccc(C(=O)NC(CCC(=O)O)C(=O)O)cc1OC (centres unmarked) [Formula VIII] : 2
Cc1cc(C(=O)NC(CCC(=O)O)C(=O)O)ccc1N(Cc1cnc2nc(N)nc(N)c2n1)CC(C)(C)C (centres unmarked) [Formula IV] : 6
C#CCN(Cc1cnc2nc(N)nc(N)c2n1)c1ccc(C(=O)NC(CCC(=O)O)C(=O)O)cc1C (centres unmarked) [Formula III] : 2

Hi, could you look up IC50 for each item in my list?
1. CC(C)(C)CN(Cc1cnc2nc(N)nc(N)c2n1)c1ccc(C(=O)NC(CCC(=O)O)C(=O)O)cc1 (centres unmarked) [Formula X]
2. C#CCN(Cc1cnc2nc(N)nc(N)c2n1)c1ccc(C(=O)NC(CCC(=O)O)C(=O)O)cc1OC(F)(F)F (centres unmarked) [Formula IX]

Output:
[2.5, 10]

Hi, could you look up IC50 for each item in my list?
1. CC(C)=CCN(Cc1cnc2nc(N)nc(N)c2n1)c1ccc(C(=O)NC(CCC(=O)O)C(=O)O)cc1C (centres unmarked) [Formula VI]
2. Cc1cc(C(=O)NC(CCC(=O)O)C(=O)O)ccc1N(Cc1ccoc1)Cc1cnc2nc(N)nc(N)c2n1 (centres unmarked) [Formula VII]
3. Cc1cc(C(=O)NC(CCC(=O)O)C(=O)O)ccc1N(Cc1cnc2nc(N)nc(N)c2n1)CC1CC1 (centres unmarked) [Formula V]

Output:
[1, 2, 2]
